- Tested on: HOP-62 NSCLC
- protocol: NCI-60 one-dose screen, 48 h
- experimental.conditions: 10 µM unless noted
Compounds without any hit were thinned out: in the full panel of roughly 83,000, 20% have a hit. Activity calls are given as the source filed them. Rule for the calls: active = growth percent below 10; inactive = the rest.
Hello, when you answer, please use one of the following outcomes: active, inactive

Dear colleague, could you share the recorded outcome for CC1(C)NCCC[C@]2(C)[C@H]3C=CC4=C5C[C@](C)(CO)CC[C@]5(C)CC[C@@]4(C)[C@]3(C)CC[C@@H]12 when you have a moment?
active

Dear colleague, could you share the recorded outcome for Cn1cc(-c2noc(-c3cn(C)c4ncc(F)cc34)n2)c2cc(Cl)ccc21 when you have a moment?
inactive

Dear colleague, could you share the recorded outcome for COc1ccc(NC(=S)NNc2ccc(-c3ccc(OC)c(OC)c3)nn2)cc1 when you have a moment?
inactive

Dear colleague, could you share the recorded outcome for O=[N+]([O-])c1cc(CCl)ccc1OCCBr when you have a moment?
inactive

Dear colleague, could you share the recorded outcome for O=C1COCCN1c1ccc(NCc2cn(Cc3ccccc3)c3ccccc23)cc1 when you have a moment?
inactive

====

Provide the recorded growth for the entries that follow.
- System: MOLT-4 leukemia
- protocol: NCI-60 one-dose screen, 48 h (100 = growth as untreated, 0 = no growth, -100 = all killed)
- experimental.conditions: 10 µM unless noted
About 83,000 compounds went through this panel and 20% of them were active in at least one assay; those are over-represented in the sample as a whole. Calls of active or inactive are those of the source. The calls were made as follows: active = growth percent below 10; inactive = the rest.

// fetch MOLT-4 leukemia growth for CCOC(=O)C(=Cc1ccccc1[N+](=O)[O-])C(=O)OCC
11.1% (inactive)

// fetch MOLT-4 leukemia growth for CCCCCCCCCCCCCC[n+]1cccc(C(N)=O)c1
-31% (active)

// fetch MOLT-4 leukemia growth for CCc1ccc(NC(=O)N[C@@H](Cc2cc(F)cc(F)c2)C(=O)N[C@@H]2C(=O)N3C[C@H](O)C[C@H]3C(=O)N3CCOC[C@H]3C(=O)N[C@@H](C)C(=O)N3C[C@H](C)C[C@H]3C(=O)O[C@H]2C)cc1
43.3% (inactive)

// fetch MOLT-4 leukemia growth for CCN(CC)CCCCCCNc1cccc2cc(Br)cnc12
9.09% (active)

====

- System: MDA-MB-231 breast
- protocol: NCI-60 one-dose screen, 48 h
- experimental.conditions: 10 µM unless noted
The panel holds about 83,000 compounds, 20% with a hit somewhere; the sample as a whole holds those more often. Active and inactive are the calls of the source. Rule for the calls: active = growth percent below 10; inactive = the rest.
Hello, when you answer, please use one of the following outcomes: 1.0 for active, 0.0 for inactive

Dear colleague, could you share the recorded outcome for O=C(NCc1ccc(Cn2c(=O)sn(-c3ccccc3)c2=O)cc1)OCc1ccc2c(Br)cc(Br)c(O)c2n1 when you have a moment?
1.0

Dear colleague, could you share the recorded outcome for CC1(C)C(=O)/C(=C\c2ccco2)C[C@]2(C)[C@H]3CC=C4[C@@H]5C[C@](C)(C(=O)O)CC[C@]5(C)CC[C@@]4(C)[C@]3(C)CC[C@@H]12 when you have a moment?
1.0

Dear colleague, could you share the recorded outcome for CC(C)[C@H]1COC(=O)N1[C@@H]1C(=O)N([C@@H](CCC(=O)N2CCN(C3CCCC3)CC2)C(=O)N[C@@H]2CCCc3ccccc32)[C@@H]1/C=C/c1cccc(Cl)c1 when you have a moment?
0.0

====

- System: KM12 colon
- protocol: NCI-60 one-dose screen, 48 h
- experimental.conditions: 10 µM unless noted
This is part of a sample that, as a whole, favours compounds with a hit. Of some 83,000 tested, about 20% had one in any assay. Calls of active or inactive are those of the source. Rule for the calls: active = growth percent below 10; inactive = the rest.
Hello, when you answer, please use one of the following outcomes: active, inactive

Dear colleague, could you share the recorded outcome for CCCCOC(=O)c1cccc([N+](=O)[O-])c1 when you have a moment?
inactive

Dear colleague, could you share the recorded outcome for O=C(CSc1nc2ccc([N+](=O)[O-])cc2[nH]1)Nc1cccc(Cl)c1 when you have a moment?
inactive

Dear colleague, could you share the recorded outcome for CC1Cc2c(Cl)ncnc2N(C)c2ccc(O)cc21 (centres undefined) when you have a moment?
inactive

Dear colleague, could you share the recorded outcome for C=C(C)[C@@H]1CC[C@]2(COCCC#N)CC[C@]3(C)[C@H](CC[C@@H]4[C@@](C)(CCCNCCC#N)[C@H](C(=C)C)CC[C@]43C)[C@@H]12 when you have a moment?
inactive

Dear colleague, could you share the recorded outcome for COc1ccc(C=C2c3ccccc3-c3ccccc32)cc1 when you have a moment?
inactive

Dear colleague, could you share the recorded outcome for COc1cc2c(cc1OCCCN1CCN(CCCOc3cc4c(cc3OC)C(=O)N3C[C@H](F)C[C@H]3C=N4)CC1)N=C[C@@H]1C[C@@H](F)CN1C2=O when you have a moment?
active

Dear colleague, could you share the recorded outcome for O=S(=O)(/N=c1/n(-c2ccccc2)nc2n1CCN2C1=NCCN1)c1ccc(-c2ccccc2)cc1 when you have a moment?
inactive

Dear colleague, could you share the recorded outcome for Cn1c(=O)c(C#N)c(-c2ccco2)n2c(S(=O)(=O)Cc3ccccc3)nnc12 when you have a moment?
inactive

Dear colleague, could you share the recorded outcome for CCOC(=O)n1cc(C2=C(c3ccc(OC)c(OC)c3)COC2=O)c2ccccc21 when you have a moment?
active
